Would you mind telling me the reported Peak time tmax of each entry?
assay: Pharmacokinetic assay in Balb/c mice (plasma and brain tissue); format: in vivo; conditions: Plasma, p.o. 5 mg/kg
Numeric only. Scale: h

Please look at this compound and report its Peak time tmax: "O=C(N[C@H]1CC[C@H](CCN2CCN(c3cccc4sccc34)CC2)CC1)C1(O)CC1"
1

Please look at this compound and report its Peak time tmax: "O=C(N[C@H]1CC[C@](F)(CCN2CCN(c3cccc4sccc34)CC2)CC1)c1ccco1"
6

Please look at this compound and report its Peak time tmax: "CC(C)(O)C(=O)N[C@H]1CC[C@H](CCN2CCN(c3cccc4sccc34)CC2)CC1"
1

Please look at this compound and report its Peak time tmax: "O=C(N[C@H]1CC[C@H](CCN2CCN(c3cccc4sccc34)CC2)CC1)c1ncco1"
1

###

experiment: Stability assay in liver microsome in vitro; type: in vitro ADME, Mouse; conditions: CD-1, liver microsomes, pH 7.4; Mouse liver microsome 0.5 mg/mL, compound 1 μM, NADPH/UDPGA; read-out: Half life (t1/2)
measuredEndpoint: half-life at 1 μM (h)
Numeric only. Scale: h

Please look at this compound and report its half-life at 1 μM: CN(C)C(=O)N[C@H]1CC[C@H](CCN2CCN(c3cccc(Cl)c3Cl)CC2)CC1 [Cariprazine, reference compound]
1.1

Please look at this compound and report its half-life at 1 μM: "CC(C)(O)C(=O)N[C@H]1CC[C@H](CCN2CCN(c3cccc4sccc34)CC2)CC1"
2.72

###

experiment: Pharmacokinetic assay in Balb/c mice (plasma and brain tissue); format: in vivo; details: male, Balb/c, mouse, po, Plasma, p.o. 5 mg/kg, read-out: Area under curve AUC0-∞
Would you mind telling me the reported AUC(0-inf) of each entry?
Numeric only. Scale: ng·h/mL

Please look at this molecule and report its AUC(0-inf): "O=C(N[C@H]1CC[C@](F)(CCN2CCN(c3cccc4sccc34)CC2)CC1)c1ccco1"
3390

Please look at this molecule and report its AUC(0-inf): "O=C(N[C@H]1CC[C@H](CCN2CCN(c3cccc4sccc34)CC2)CC1)c1ncco1"
4860

Please look at this molecule and report its AUC(0-inf): "CC(C)(O)C(=O)N[C@H]1CC[C@H](CCN2CCN(c3cccc4sccc34)CC2)CC1"
6370

Please look at this molecule and report its AUC(0-inf): "O=C(N[C@H]1CC[C@H](CCN2CCN(c3cccc4sccc34)CC2)CC1)C1(O)CC1"
4370

###

Would you mind telling me the reported AUC(0-t) of each entry?
Test: Pharmacokinetic assay in Balb/c mice (plasma and brain tissue)
Type: in vivo
Settings: male, Balb/c, mouse, po, Brain, p.o. 5 mg/kg, read-out: Area under curve AUC0-t
Procedure: III. Pharmacokinetic Assay in Balb/c Mice Balb/c mice were used as test animals. The pharmacokinetic behavior of the compounds of Examples of the present invention was studied in mouse body (plasma and brain tissue) by orally administration at a dose of 5 mg/kg. […] The main parameters of pharmacokinetics were calculated by WinNonlin 6.1.
Numeric only. Scale: ng·h/mL

Please look at this compound and report its AUC(0-t): "O=C(N[C@H]1CC[C@](F)(CCN2CCN(c3cccc4sccc34)CC2)CC1)c1ccco1"
4590

Please look at this compound and report its AUC(0-t): "O=C(N[C@H]1CC[C@H](CCN2CCN(c3cccc4sccc34)CC2)CC1)C1(O)CC1"
3610

Please look at this compound and report its AUC(0-t): "CC(C)(O)C(=O)N[C@H]1CC[C@H](CCN2CCN(c3cccc4sccc34)CC2)CC1"
8120

Please look at this compound and report its AUC(0-t): "O=C(N[C@H]1CC[C@H](CCN2CCN(c3cccc4sccc34)CC2)CC1)c1ncco1"
14100

###

molecular target: Human Dopamine D3 Receptor (Homo sapiens (Human), UniProt P35462)
Sequence (P35462 whole entry): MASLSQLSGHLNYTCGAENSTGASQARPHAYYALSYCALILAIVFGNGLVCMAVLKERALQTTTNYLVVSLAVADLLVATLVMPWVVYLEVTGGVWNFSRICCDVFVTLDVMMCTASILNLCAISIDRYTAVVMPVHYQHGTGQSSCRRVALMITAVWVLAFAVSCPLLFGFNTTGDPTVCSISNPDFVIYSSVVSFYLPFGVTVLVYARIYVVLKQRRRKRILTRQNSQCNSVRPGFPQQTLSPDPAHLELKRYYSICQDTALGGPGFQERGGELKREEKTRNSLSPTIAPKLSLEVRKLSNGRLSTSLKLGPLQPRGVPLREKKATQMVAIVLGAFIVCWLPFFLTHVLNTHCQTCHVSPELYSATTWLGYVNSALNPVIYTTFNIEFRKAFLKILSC
pIC50: −log10 of the molar value.
Decision: pIC50 >= 9 yields true, all other cases yield false.

Can "O=C(N[C@H]1CC[C@H](CCN2CCN(c3cccc4sccc34)CC2)CC1)C1(O)CC1" be said to have pIC50 at or above 9?
true

Can "Fc1cnc(N[C@H]2CC[C@H](CCN3CCN(c4cccc5sccc45)CC3)CC2)nc1" be said to have pIC50 at or above 9?
false

Can CN(C)C(=O)NC1CCC(CCN2CCN(c3cccc4sccc34)CC2)CC1F (stereo not shown) be said to have pIC50 at or above 9?
false

Can "COCC(=O)N[C@H]1CC[C@H](CCN2CCN(c3cccc4sccc34)CC2)CC1" be said to have pIC50 at or above 9?
true

###

experiment: Pharmacokinetic assay in Balb/c mice (plasma and brain tissue); type: in vivo; details: male, Balb/c, mouse, po, Brain, p.o. 5 mg/kg, read-out: Plasma concentration Cmax
Would you mind telling me the reported Cmax of each entry?
The reply must contain the numeric value and, after it, the unit.

Please look at this compound and report its Cmax: O=C(N[C@H]1CC[C@](F)(CCN2CCN(c3cccc4sccc34)CC2)CC1)c1ccco1 [Example 40]
328 ng/mL

Please look at this compound and report its Cmax: O=C(N[C@H]1CC[C@H](CCN2CCN(c3cccc4sccc34)CC2)CC1)C1(O)CC1 [Example 42]
330 ng/mL

Please look at this compound and report its Cmax: CC(C)(O)C(=O)N[C@H]1CC[C@H](CCN2CCN(c3cccc4sccc34)CC2)CC1 [Example 41]
731 ng/mL

Please look at this compound and report its Cmax: O=C(N[C@H]1CC[C@H](CCN2CCN(c3cccc4sccc34)CC2)CC1)c1ncco1 [Example 43]
1390 ng/mL

###

Would you mind telling me the reported microsomal CLint at 1 μM of each entry?
experiment: Stability assay in liver microsome in vitro; type: in vitro ADME, Mouse; details: CD-1, liver microsomes, pH 7.4; Mouse liver microsome; note: Slow <8.8, Rapid >48.0; read-out: Intrinsic clearance rate (CLint)
Numeric only. Scale: µL/min/mg

Please look at this compound and report its microsomal CLint at 1 μM: "CC(C)(O)C(=O)N[C@H]1CC[C@H](CCN2CCN(c3cccc4sccc34)CC2)CC1"
21.3

Please look at this compound and report its microsomal CLint at 1 μM: CN(C)C(=O)N[C@H]1CC[C@H](CCN2CCN(c3cccc(Cl)c3Cl)CC2)CC1 [Cariprazine, reference compound]
21.1

###

test: Pharmacokinetic assay in Balb/c mice (plasma and brain tissue); type: in vivo; conditions: male, Balb/c, mouse, po, Plasma, p.o. 5 mg/kg, read-out: Half life t1/2 (converted)
measuredEndpoint: half-life (h)
Numeric only. Scale: h

Please look at this compound and report its half-life: "O=C(N[C@H]1CC[C@](F)(CCN2CCN(c3cccc4sccc34)CC2)CC1)c1ccco1"
7.3

Please look at this compound and report its half-life: "CC(C)(O)C(=O)N[C@H]1CC[C@H](CCN2CCN(c3cccc4sccc34)CC2)CC1"
10.2

Please look at this compound and report its half-life: "O=C(N[C@H]1CC[C@H](CCN2CCN(c3cccc4sccc34)CC2)CC1)C1(O)CC1"
4.84

Please look at this compound and report its half-life: "O=C(N[C@H]1CC[C@H](CCN2CCN(c3cccc4sccc34)CC2)CC1)c1ncco1"
8.9

###

Recorded IC50 values (Human Dopamine D3 Receptor (Homo sapiens (Human))) are given below.
The reply must contain the numeric value and, after it, the unit.

Please look at this compound and report its IC50: CON(C)C(=O)N[C@H]1CC[C@H](CCN2CCN(c3cccc4sccc34)CC2)CC1 [Example 50]
1290 pM

Please look at this compound and report its IC50: CCNC(=O)N[C@H]1CC[C@](F)(CCN2CCN(c3cccc4sccc34)CC2)CC1 [Example 16]
570 pM

Please look at this compound and report its IC50: COC1(C)CN(C(=O)N[C@H]2CC[C@H](CCN3CCN(c4cccc5sccc45)CC3)CC2)C1 [Example 4]
1520 pM

Please look at this compound and report its IC50: O=C(N[C@H]1CC[C@H](CCN2CCN(c3cccc4sccc34)CC2)CC1)c1ccco1 [Example 45]
120 pM

Please look at this compound and report its IC50: CC(C)(O)CC(=O)N[C@H]1CC[C@H](CCN2CCN(c3cccc4sccc34)CC2)CC1 [Example 48]
360 pM

Please look at this compound and report its IC50: CC1(O)CN(C(=O)N[C@H]2CC[C@H](CCN3CCN(c4cccc5sccc45)CC3)CC2)C1 [Example 3]
1590 pM

Please look at this compound and report its IC50: Cc1ccc(C(=O)N[C@H]2CC[C@H](CCN3CCN(c4cccc5sccc45)CC3)CC2)o1 [Example 46]
600 pM

Please look at this compound and report its IC50: C[C@@H]1CN(c2cccc3sccc23)CCN1CC[C@H]1CC[C@H](Nc2ncc(C#N)cn2)CC1 [Example 44]
1580 pM

###

assay: Pharmacokinetic assay in Balb/c mice (plasma and brain tissue); assay type: in vivo; settings: male, Balb/c, mouse, po, Plasma, p.o. 5 mg/kg, read-out: Plasma concentration Cmax
measuredEndpoint: Cmax (ng/mL)
Numeric only. Scale: ng/mL

Please look at this compound and report its Cmax: O=C(N[C@H]1CC[C@H](CCN2CCN(c3cccc4sccc34)CC2)CC1)C1(O)CC1 [Example 42]
477

Please look at this compound and report its Cmax: O=C(N[C@H]1CC[C@](F)(CCN2CCN(c3cccc4sccc34)CC2)CC1)c1ccco1 [Example 40]
192

Please look at this compound and report its Cmax: CC(C)(O)C(=O)N[C@H]1CC[C@H](CCN2CCN(c3cccc4sccc34)CC2)CC1 [Example 41]
452

Please look at this compound and report its Cmax: O=C(N[C@H]1CC[C@H](CCN2CCN(c3cccc4sccc34)CC2)CC1)c1ncco1 [Example 43]
403

// data source = patent US12459931B2
